// provenance: patent US6500405B1

System: tubulin in colon cancer cell line HCT-116
assayRemarks: Whole cell binding assay, tritiated S-enantiomer of compound 2 as probe, colon cancer cell line HCT-116
protocolConditions: 100 μM; HCT-116; 1 hour preincubation, 1 hour with radioligand
I'd appreciate it if you could supply Binding of radioligand (% control) values for the items below.

Fill in the blank: the reported Binding of radioligand (% control) of COC(=O)Nc1nc2ccc(C(=O)c3cccs3)cc2[nH]1 is ____.
44 % control

Now consider COc1cc([C@@H]2c3cc4c(cc3[C@H](O)[C@H]3COC(=O)[C@H]23)OCO4)cc(OC)c1OC and answer again.
0 % control

Now consider CC[C@]1(O)C[C@@H]2CN(CCc3c([nH]c4ccccc34)[C@@](C(=O)OC)(c3cc4c(cc3OC)N(C)[C@H]3[C@@](O)(C(=O)OC)[C@H](OC(C)=O)[C@]5(CC)C=CCN6CC[C@]43[C@@H]65)C2)C1 and answer again.
323 % control

Now consider CC(=O)O[C@H]1C(=O)[C@@]2(C)[C@H]([C@H](OC(=O)c3ccccc3)[C@]3(O)C[C@H](OC(=O)[C@H](O)[C@@H](NC(=O)c4ccccc4)c4ccccc4)C(C)=C1C3(C)C)[C@]1(OC(C)=O)CO[C@@H]1C[C@@H]2O and answer again.
4 % control

###

subjectOfTest: tubulin in Phytophthora capsici (Phytophthora capsici, UniProt A4ZYP2)
Sequence (A4ZYP2 entry or part of it): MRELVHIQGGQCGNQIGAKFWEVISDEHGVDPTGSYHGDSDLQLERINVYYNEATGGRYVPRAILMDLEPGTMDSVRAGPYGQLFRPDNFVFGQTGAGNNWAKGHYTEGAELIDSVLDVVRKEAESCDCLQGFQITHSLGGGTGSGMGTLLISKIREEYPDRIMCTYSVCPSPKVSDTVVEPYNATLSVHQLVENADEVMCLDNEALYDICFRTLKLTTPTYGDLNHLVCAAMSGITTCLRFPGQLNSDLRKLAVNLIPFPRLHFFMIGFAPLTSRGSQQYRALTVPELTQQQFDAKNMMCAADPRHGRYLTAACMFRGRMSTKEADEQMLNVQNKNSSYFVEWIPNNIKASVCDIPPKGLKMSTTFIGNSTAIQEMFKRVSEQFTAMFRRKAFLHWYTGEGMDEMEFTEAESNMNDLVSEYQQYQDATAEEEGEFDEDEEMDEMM
Sequence (A4ZYP4 entry or part of it, further chain): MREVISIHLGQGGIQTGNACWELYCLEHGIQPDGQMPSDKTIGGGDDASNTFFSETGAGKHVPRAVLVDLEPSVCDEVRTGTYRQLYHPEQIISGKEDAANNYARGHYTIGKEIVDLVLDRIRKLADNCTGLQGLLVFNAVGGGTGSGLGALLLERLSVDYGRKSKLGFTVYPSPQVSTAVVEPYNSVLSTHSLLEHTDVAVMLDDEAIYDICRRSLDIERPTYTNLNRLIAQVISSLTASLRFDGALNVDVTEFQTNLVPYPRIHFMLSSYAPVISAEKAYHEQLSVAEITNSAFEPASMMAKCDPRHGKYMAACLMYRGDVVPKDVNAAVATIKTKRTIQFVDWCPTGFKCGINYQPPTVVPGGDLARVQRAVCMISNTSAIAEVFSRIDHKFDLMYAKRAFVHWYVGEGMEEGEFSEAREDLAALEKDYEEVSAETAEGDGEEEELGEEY
assayRemarks: Binding assay, tritiated compound 1 as probe, germinated zoospore cysts of Phytophthora capsici
protocolConditions: 1 hour preincubation, 20 minutes with tritiated compound 1, read-out: IC50 (concentration required to inhibit binding of the radioligand by 50%) (converted)
observedProperty: IC50 (nM)
Respond with the bare value in nM.

Fill in the blank: the reported IC50 of CCC(C)(NC(=O)c1cc(Cl)cc(C=NOC)c1)C(=O)CCl (stereo not drawn) [Compound 7] is ____.
2840

Now consider CCC(C)(NC(=O)c1cc(Cl)c(Cl)c(Cl)c1)C(=O)CCl (stereo not drawn) [Compound 23] and answer again.
168

Now consider CC(C)C(C)(NC(=O)c1cc(Cl)cc(Cl)c1)C(=O)CCl (stereo not drawn) [Compound 27] and answer again.
5440

Now consider CCC(C)(NC(=O)c1cc(C)cc(Br)c1)C(=O)CCl (stereo not drawn) [Compound 8] and answer again.
721

Now consider CCC(C)(NC(=O)c1cccc(C=NOC)c1)C(=O)CCl (stereo not drawn) [Compound 16] and answer again.
3760

Now consider CC(C)(NC(=O)c1cc(Cl)cc(Cl)c1)C(=O)CCl [Compound 19] and answer again.
810

###

Tested on: tubulin in colon cancer cell line HCT-116
assayRemarks: Whole cell binding assay, tritiated S-enantiomer of compound 2 as probe, colon cancer cell line HCT-116
protocolConditions: 1 μM; HCT-116; 1 hour preincubation, 1 hour with radioligand
observedProperty: Binding of radioligand (% control)
Respond with the bare value in % control.

Fill in the blank: the reported Binding of radioligand (% control) of COC(=O)Nc1nc2ccc(C(=O)c3cccs3)cc2[nH]1 is ____.
99

Now consider COc1cc([C@@H]2c3cc4c(cc3[C@H](O)[C@H]3COC(=O)[C@H]23)OCO4)cc(OC)c1OC and answer again.
0

Now consider CC(=O)O[C@H]1C(=O)[C@@]2(C)[C@H]([C@H](OC(=O)c3ccccc3)[C@]3(O)C[C@H](OC(=O)[C@H](O)[C@@H](NC(=O)c4ccccc4)c4ccccc4)C(C)=C1C3(C)C)[C@]1(OC(C)=O)CO[C@@H]1C[C@@H]2O and answer again.
19

Now consider CC[C@]1(O)C[C@@H]2CN(CCc3c([nH]c4ccccc34)[C@@](C(=O)OC)(c3cc4c(cc3OC)N(C)[C@H]3[C@@](O)(C(=O)OC)[C@H](OC(C)=O)[C@]5(CC)C=CCN6CC[C@]43[C@@H]65)C2)C1 and answer again.
218
